Some variants, each annotated with its measured fraction ligated.
B1: F1*; the commonest letter at each place (parent)
chain: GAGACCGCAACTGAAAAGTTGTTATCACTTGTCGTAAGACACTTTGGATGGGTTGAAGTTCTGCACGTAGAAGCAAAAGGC

Variants of: B1
Experiment: fraction ligated after 30 min (ligated reads / total reads); higher = more ligase activity
Conditions: with F1*sub RNA substrate (template-directed ligation), 42 °C

A36T A41T | 0.819
C28A A37G | 0.793
A27G G46C | 0.795
C42G A56G | 0.792

// switching to the query variant
Which fraction ligated is reported for this variant? C28A G34T
0.808
